All values here come from patent US10696651B2.

Molecular target: human GCN2 full-length protein (Homo sapiens)
Construct: purchased Carna Biosciences, Inc
Experiment: GCN2 enzyme inhibition assay (LanthaScreen TR-FRET)
Format: biochemical
Details: GCN2 enzyme inhibitory activity at compound concentration of 3 μM; Table 3-2; read-out: inhibitory rate

- molecule: "COc1c(CO)cc(Cl)cc1S(=O)(=O)Nc1ccc(F)c(C#Cc2cnc(N[C@H](C)CO)nc2)c1F [Example 150]"
  reading.unit: "%"
  inhibition at 3 µM: 99
- molecule: "O=S(=O)(Nc1ccc(F)c(C#Cc2cnc(N[C@H]3CC[C@H](O)CC3)nc2)c1F)c1cc(Cl)cc(CO)c1Cl [Example 176]"
  reading.unit: "%"
  inhibition at 3 µM: 100
- molecule: "CNc1ncc(Cl)cc1S(=O)(=O)Nc1ccc(F)c(C#Cc2cnc(N)nc2)c1F [Example 171]"
  reading.unit: "%"
  inhibition at 3 µM: 100
- molecule: "COc1c(CO)cc(Cl)cc1S(=O)(=O)Nc1ccc(F)c(C#Cc2cnc(NCCO)nc2)c1F [Example 149]"
  reading.unit: "%"
  inhibition at 3 µM: 99
- molecule: "COc1c(CO)cc(Cl)cc1S(=O)(=O)Nc1ccc(F)c(C#Cc2cnc(N)nc2)c1F [Example 129]"
  reading.unit: "%"
  inhibition at 3 µM: 99
- molecule: "Cc1ncc(Cl)cc1S(=O)(=O)Nc1ccc(F)c(C#Cc2cnc(N[C@H]3CC[C@H](O)CC3)nc2)c1F [Example 188]"
  reading.unit: "%"
  inhibition at 3 µM: 100
- molecule: "COc1c(CO)cc(Cl)cc1S(=O)(=O)Nc1ccc(F)c(C#Cc2cnc(NCC3CCOC3)nc2)c1F (stereo not shown) [Example 145]"
  reading.unit: "%"
  inhibition at 3 µM: 99

---

Target: human GCN2 full-length protein (Homo sapiens)
Construct: purchased Carna Biosciences, Inc
Test: GCN2 enzyme inhibition assay (LanthaScreen TR-FRET)
Type: biochemical
Details: GCN2 enzyme inhibitory activity at compound concentration of 3 μM; Table 3-1; read-out: inhibitory rate
Counter-ions that a name gives are not always drawn.
Examples of compounds with documented inhibition at 3 µM follow.

- compound: "COc1c(Cl)cc(Cl)cc1S(=O)(=O)Nc1ccc(F)c(C#Cc2cnc3[nH]ncc3c2)c1F [Example 33]"
  reading.unit: "%"
  inhibition at 3 µM: 98
- compound: "Nc1ncc(C#Cc2c(F)ccc(NS(=O)(=O)c3cc(Cl)ccc3OC(F)F)c2F)cn1 [Example 21]"
  reading.unit: "%"
  inhibition at 3 µM: 99
- compound: "Cc1cc(C)cc(S(=O)(=O)Nc2ccc(F)c(C#Cc3cnc4[nH]ncc4c3)c2F)c1 [Example 111, TFA Salt]"
  reading.unit: "%"
  inhibition at 3 µM: 97
- compound: "Nc1ncc(C#Cc2c(F)ccc(NS(=O)(=O)c3cc(Cl)cc(Cl)c3)c2F)cn1 [Example 27]"
  reading.unit: "%"
  inhibition at 3 µM: 95

---

Tested on: osteosarcoma cell line U-2-OS
Experiment: In vitro cell proliferation inhibition assay (CellTiter-Glo, low amino acid media)
Assay type: cell-based
Conditions: McCoy's 5A low amino acid media, 72 hr, Table 4-2
Returns fulfilled if the recorded inhibitory rate is greater than or equal to 60%, and not fulfilled otherwise.

- compound: "C[C@H](CO)Nc1ncc(C#Cc2c(F)ccc(NS(=O)(=O)c3cc(Cl)cc4c3OCC4O)c2F)cn1 (some centres unmarked) [Example 187]"
  assayed.system: "osteosarcoma cell line U-2-OS"
  answer.label: "fulfilled"
- compound: "O=S(=O)(Nc1ccc(F)c(C#Cc2cnc(N[C@H]3CC[C@H](O)CC3)nc2)c1F)c1cc(Cl)cc2c1OCC2O (some centres unmarked) [Example 190]"
  assayed.system: "osteosarcoma cell line U-2-OS"
  answer.label: "fulfilled"
- compound: "O=S(=O)(Nc1ccc(F)c(C#Cc2cnc(N[C@H]3CC[C@H](O)CC3)nc2)c1F)c1cc(Cl)cc2c1OCC2O (some centres unmarked) [Example 191]"
  assayed.system: "osteosarcoma cell line U-2-OS"
  answer.label: "fulfilled"
- compound: "C[C@H](CO)Nc1ncc(C#Cc2c(F)ccc(NS(=O)(=O)c3cc(Cl)cc4c3OCC4O)c2F)cn1 (some centres unmarked) [Example 186]"
  assayed.system: "osteosarcoma cell line U-2-OS"
  answer.label: "not fulfilled"

---

Form field: inhibition at 3 µM (one value per entry).
Biological target: human GCN2 full-length protein (Homo sapiens, UniProt Q9P2K8)
Construct: purchased Carna Biosciences, Inc
Sequence (Q9P2K8 whole entry): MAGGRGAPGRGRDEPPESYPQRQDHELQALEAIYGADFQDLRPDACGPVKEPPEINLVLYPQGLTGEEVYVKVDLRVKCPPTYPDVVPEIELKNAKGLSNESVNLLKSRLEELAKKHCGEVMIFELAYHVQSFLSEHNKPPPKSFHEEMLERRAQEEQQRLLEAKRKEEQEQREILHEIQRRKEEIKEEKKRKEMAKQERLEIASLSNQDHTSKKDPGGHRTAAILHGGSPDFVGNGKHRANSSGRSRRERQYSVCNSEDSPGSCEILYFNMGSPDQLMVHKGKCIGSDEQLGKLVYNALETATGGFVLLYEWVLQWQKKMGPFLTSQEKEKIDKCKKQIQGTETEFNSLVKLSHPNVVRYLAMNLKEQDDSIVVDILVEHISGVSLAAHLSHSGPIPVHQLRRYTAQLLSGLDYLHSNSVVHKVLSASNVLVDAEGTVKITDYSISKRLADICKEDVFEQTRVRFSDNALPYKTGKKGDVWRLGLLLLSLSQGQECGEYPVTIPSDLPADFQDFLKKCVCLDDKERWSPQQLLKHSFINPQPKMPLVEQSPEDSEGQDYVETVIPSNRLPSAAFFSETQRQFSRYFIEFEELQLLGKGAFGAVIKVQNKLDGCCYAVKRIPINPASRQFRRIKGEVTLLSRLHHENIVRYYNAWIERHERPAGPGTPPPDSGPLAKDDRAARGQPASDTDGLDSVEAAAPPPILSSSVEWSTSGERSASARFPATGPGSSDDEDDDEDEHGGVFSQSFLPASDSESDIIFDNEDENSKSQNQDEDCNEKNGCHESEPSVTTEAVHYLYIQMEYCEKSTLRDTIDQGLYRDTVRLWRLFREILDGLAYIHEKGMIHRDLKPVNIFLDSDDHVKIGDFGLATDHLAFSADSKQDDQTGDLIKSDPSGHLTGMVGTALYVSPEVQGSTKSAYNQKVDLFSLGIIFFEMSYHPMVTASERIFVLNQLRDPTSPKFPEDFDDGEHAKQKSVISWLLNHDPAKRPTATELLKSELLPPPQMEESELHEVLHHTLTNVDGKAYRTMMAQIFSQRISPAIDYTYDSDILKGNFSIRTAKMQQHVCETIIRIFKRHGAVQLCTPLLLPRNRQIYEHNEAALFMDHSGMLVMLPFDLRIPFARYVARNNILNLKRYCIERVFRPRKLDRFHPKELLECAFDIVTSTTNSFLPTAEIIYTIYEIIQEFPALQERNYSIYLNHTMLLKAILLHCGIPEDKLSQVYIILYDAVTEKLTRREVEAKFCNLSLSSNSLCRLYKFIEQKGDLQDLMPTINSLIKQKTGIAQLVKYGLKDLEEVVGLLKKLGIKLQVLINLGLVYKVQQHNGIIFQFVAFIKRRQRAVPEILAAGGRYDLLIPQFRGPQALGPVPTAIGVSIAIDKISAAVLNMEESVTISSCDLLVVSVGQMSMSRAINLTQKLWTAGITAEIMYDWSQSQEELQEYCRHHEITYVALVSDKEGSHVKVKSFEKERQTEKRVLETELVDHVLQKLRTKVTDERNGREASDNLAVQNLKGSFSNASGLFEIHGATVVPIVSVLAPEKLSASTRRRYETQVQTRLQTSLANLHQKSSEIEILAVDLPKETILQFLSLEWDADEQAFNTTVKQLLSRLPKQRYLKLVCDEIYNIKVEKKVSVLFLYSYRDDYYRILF
Test: GCN2 enzyme inhibition assay (LanthaScreen TR-FRET)
Format: biochemical
Conditions: GCN2 enzyme inhibitory activity at compound concentration of 3 μM; Table 3-1; read-out: inhibitory rate
Where a name gives a salt, the structure may show the parent alone.

- molecule: "O=S(=O)(Nc1ccc(F)c(C#Cc2cnc(NC3CC3)nc2)c1F)c1cc(Cl)ccc1Cl [Example 11, TFA Salt]"
  assayed.system: "human GCN2 full-length protein (Homo sapiens, UniProt Q9P2K8)"
  reading.unit: "%"
  inhibition at 3 µM: 99
- molecule: "COc1ncc(Cl)cc1S(=O)(=O)Nc1ccc(Cl)c(C#Cc2cnc(N)nc2)c1F [Example 124]"
  assayed.system: "human GCN2 full-length protein (Homo sapiens, UniProt Q9P2K8)"
  reading.unit: "%"
  inhibition at 3 µM: 100
- molecule: "Nc1ncc(C#Cc2c(F)ccc(NS(=O)(=O)c3cc(C(F)(F)F)ccc3Cl)c2F)cn1 [Example 35]"
  assayed.system: "human GCN2 full-length protein (Homo sapiens, UniProt Q9P2K8)"
  reading.unit: "%"
  inhibition at 3 µM: 95
- molecule: "O=S(=O)(Nc1ccc(F)c(C#Cc2cnc3[nH]ncc3c2)c1F)c1cc(Cl)cc2c1OCC2 [Example 8]"
  assayed.system: "human GCN2 full-length protein (Homo sapiens, UniProt Q9P2K8)"
  reading.unit: "%"
  inhibition at 3 µM: 100
- molecule: "Nc1ncc(C#Cc2c(F)ccc(NS(=O)(=O)c3cc(Cl)ccc3Cl)c2F)cn1 [Example 17]"
  assayed.system: "human GCN2 full-length protein (Homo sapiens, UniProt Q9P2K8)"
  reading.unit: "%"
  inhibition at 3 µM: 99
- molecule: "N#Cc1ccc(Cl)cc1S(=O)(=O)Nc1ccc(F)c(C#Cc2cnc(N)nc2)c1F [Example 29]"
  assayed.system: "human GCN2 full-length protein (Homo sapiens, UniProt Q9P2K8)"
  reading.unit: "%"
  inhibition at 3 µM: 99
- molecule: "O=S(=O)(Nc1ccc(F)c(C#Cc2cnc3[nH]ncc3c2)c1F)c1c(Cl)c(Cl)cc(Cl)c1Cl [Example 23]"
  assayed.system: "human GCN2 full-length protein (Homo sapiens, UniProt Q9P2K8)"
  reading.unit: "%"
  inhibition at 3 µM: 100
- molecule: "Nc1ncc(C#Cc2c(F)ccc(NS(=O)(=O)c3cc(Cl)ccc3Cl)c2F)c(N)n1 [Example 34]"
  assayed.system: "human GCN2 full-length protein (Homo sapiens, UniProt Q9P2K8)"
  reading.unit: "%"
  inhibition at 3 µM: 98
- molecule: "O=S(=O)(Nc1ccc(F)c(C#Cc2cnc(N[C@H]3CC[C@H](O)CC3)nc2)c1F)c1cc(Cl)ccc1Cl [Example 32, TFA Salt]"
  assayed.system: "human GCN2 full-length protein (Homo sapiens, UniProt Q9P2K8)"
  reading.unit: "%"
  inhibition at 3 µM: 99
- molecule: "COc1ncc(Cl)cc1S(=O)(=O)Nc1ccc(F)c(C#Cc2cnc(N)nn2)c1F [Example 109]"
  assayed.system: "human GCN2 full-length protein (Homo sapiens, UniProt Q9P2K8)"
  reading.unit: "%"
  inhibition at 3 µM: 99
- molecule: "Nc1ncc(C#Cc2c(F)ccc(NS(=O)(=O)c3cc(Cl)cc(CO)c3Cl)c2F)cn1 [Example 4]"
  assayed.system: "human GCN2 full-length protein (Homo sapiens, UniProt Q9P2K8)"
  reading.unit: "%"
  inhibition at 3 µM: 100
- molecule: "O=S(=O)(Nc1ccc(F)c(C#Cc2cnc(NC3CCOC3)nc2)c1F)c1cc(Cl)ccc1Cl (centres unmarked) [Example 16, TFA Salt]"
  assayed.system: "human GCN2 full-length protein (Homo sapiens, UniProt Q9P2K8)"
  reading.unit: "%"
  inhibition at 3 µM: 100
- molecule: "O=S(=O)(Nc1ccc(F)c(C#Cc2cnc3[nH]ncc3c2)c1F)c1cc(Cl)ccc1Cl [Example 10, TFA Salt]"
  assayed.system: "human GCN2 full-length protein (Homo sapiens, UniProt Q9P2K8)"
  reading.unit: "%"
  inhibition at 3 µM: 99
- molecule: "O=S(=O)(Nc1ccc(F)c(C#Cc2cnc(NCCCO)nc2)c1F)c1cc(Cl)ccc1Cl [Example 28, TFA Salt]"
  assayed.system: "human GCN2 full-length protein (Homo sapiens, UniProt Q9P2K8)"
  reading.unit: "%"
  inhibition at 3 µM: 99
